// data source = the supplement of paper PMC10567573

Kindly state protein stability index for each of the entries shown.
B1: SOAT2 (parent)
chain: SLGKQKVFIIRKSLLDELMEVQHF

variants of: B1; assay: protein stability index of a GFP-peptide fusion (GPS, HEK-293T) (PSI 1-6); higher = more stable; details: c terminus: a fixed tail appended;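 further: lentivirally expressed fusions sorted by FACS into six bins by GFP to DsRed ratio, PSI derived from sequencing read proportions per bin multiplied by bin number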
One number for each entry.

Check out these entries, answers already filled in.
(Q) Give its protein stability index value. Item: E17L
(A) 2.79

(Q) Give its protein stability index value. Item: K6I
(A) 3.06

(Q) Give its protein stability index value. Item: V7E
(A) 1.67

(Q) Give its protein stability index value. Item: K4H
(A) 2.31

(Q) Give its protein stability index value. Item: V21T
(A) 1.93

(Q) Give its protein stability index value. Item: L15V
(A) 1.78

(Q) Give its protein stability index value. Item: S13Y
(A) 2.52

(Q) Give its protein stability index value. Item: G3A
(A) 2.12

Count: 5. Required value per item: protein stability index.
1. S1V
2. E17N
3. L14A
4. S13H
5. Q22E

(A)
1: 2; 2: 2.79; 3: 2.72; 4: 2.48; 5: 2.74
